Reported TGI values for a set of compounds
- Test system: K-562 leukemia
- measurementDescription: NCI tumour cell line growth inhibition, 48 h

Nc1ccc(C(=O)N/C(=C\c2cccc([N+](=O)[O-])c2)c2nc3ccccc3[nH]2)cc1
> 100 µM
N#C/C(=C/N1C(=O)/C(=C/c2ccc([N+](=O)[O-])cc2)SC1=S)c1nc2ccccc2s1
> 100 µM
COc1ccc(NC=O)c(C(=O)CCNC(C)=O)c1
> 100 µM
COc1ccc(N2CCOCC2)cc1
> 100 µM
CCc1cccc(C)c1NC(=O)CCc1nnc(SC)o1
> 100 µM
CC1C=CC(O)[C@]2(CO)CC3(CCC12)OCCO3 (stereo partly specified)
> 100 µM

[ask] Entry under review: O=C1CCC[C@]2(CCCC(=O)N2)C1 . Reported TGI?
[reply] > 100 µM

[ask] Entry under review: CCCCNC(=O)NNC(=O)c1cc(/C=C/c2cccc([N+](=O)[O-])c2)ncn1 . Reported TGI?
[reply] > 100 µM
